The measured values listed here are drawn from ChEMBL document CHEMBL4513146.

Inhibition for assorted compounds
Test system: Klebsiella pneumoniae
test-conditions: Concentration 32 ug.mL-1;; ASSAY_TEST Inhibition of Bacterial Growth; detection method Absorption (OD600); MEDIA CAMHB; plate type 384well; NBS; CORNING #3640; time 18 hr
Description: Antibacterial activity against Klebsiella pneumoniae MDR ATCC 70063 (CO-ADD:GN_003); MIC in CAMBH media using NBS plates, by OD(600)
Entries with a potency or affinity are not part of this list.

| smiles-input | Inhibition |
| --- | --- |
| O=c1c2nnc(SCc3ccccc3F)n2ccn1-c1ccc(Br)cc1 | 15.43% |
| CCc1cccc(NC(=O)Cn2nc3ccc(SC(C)C)nn3c2=O)c1 | 7.23% |
| COc1ccc(N(Cc2cccc(Cl)c2)S(=O)(=O)c2ccc3nncn3c2)cc1 | 12.52% |
| CCc1nnc2c(=O)n(CC(=O)Nc3ccc(Br)cc3F)c3ccccc3n12 | 8.6% |
| Cc1ccc(-c2cc3c4nn(CC(=O)Nc5ccccc5Br)c(=O)n4ccn3n2)cc1C | 18.24% |
| CCOc1ccc(N(Cc2ccccc2)S(=O)(=O)c2ccc3nncn3c2)cc1 | 6.93% |
| Cc1ccc(Oc2nccn3c(=O)n(CC(=O)Nc4cccc(Br)c4)nc23)cc1 | 11.55% |
